FYI, the data here is from ChEMBL document CHEMBL1142307.

Experiment: Partition coefficient by Shake flask method
Format: physicochemical
Conditions: octanol/water
Measured metric: P (partition coefficient)

CC(=O)N[C@H]1[C@H](OCCN(C)C(=O)Cn2ccnc2[N+](=O)[O-])O[C@H](COC(C)=O)[C@H](OC(C)=O)[C@@H]1OC(C)=O 0.051
CC(=O)OC[C@H]1O[C@H](OCCN(C)C(=O)Cn2ccnc2[N+](=O)[O-])[C@@H](OC(C)=O)[C@@H](OC(C)=O)[C@@H]1OC(C)=O 0.0697

[A] CN(CCO)C(=O)Cn1ccnc1[N+](=O)[O-]
[B] CC(=O)OC[C@H]1O[C@@H](OCCN(C)C(=O)Cn2ccnc2[N+](=O)[O-])[C@H](OC(C)=O)[C@@H](OC(C)=O)[C@H]1OC(C)=O
[C] CC(=O)OC[C@H]1O[C@@H](OCCN(C)C(=O)Cn2ccnc2[N+](=O)[O-])[C@H](OC(C)=O)[C@@H](OC(C)=O)[C@@H]1OC(C)=O
Arrange these compounds by their P (partition coefficient), starting with the largest number. Answer with the labels in sequence, matching the requested order. C, A, B
(C: 0.105, A: 0.056, B: 0.0355)

---

Assay: Radiosensitizing activity at hypoxic mouse EMT6/KU cells assessed as enhancement ratio relative to etanidazole
Format: functional
Measured metric: Ratio
Respond using a number only.

Here are 8 compounds together with their reported answers.
CN(CCO[C@H]1O[C@H](CO)[C@@H](O)[C@H](O)[C@@H]1O)C(=O)Cn1ccnc1[N+](=O)[O-] 1.41
CC(=O)OC[C@H]1O[C@@H](OCCN(C)C(=O)Cn2ccnc2[N+](=O)[O-])[C@H](OC(C)=O)[C@@H](OC(C)=O)[C@@H]1OC(C)=O 2.3
CC(=O)OC[C@H]1O[C@H](OCCN(C)C(=O)Cn2ccnc2[N+](=O)[O-])[C@@H](OC(C)=O)[C@@H](OC(C)=O)[C@@H]1OC(C)=O 1.88
CC(=O)N[C@H]1[C@H](OCCN(C)C(=O)Cn2ccnc2[N+](=O)[O-])O[C@H](COC(C)=O)[C@H](OC(C)=O)[C@@H]1OC(C)=O 1.47
CC(=O)N[C@H]1[C@H](OCCN(C)C(=O)Cn2ccnc2[N+](=O)[O-])O[C@H](CO)[C@H](O)[C@@H]1O 1.43
CN(CCO[C@@H]1O[C@H](CO)[C@@H](O)[C@H](O)[C@H]1O)C(=O)Cn1ccnc1[N+](=O)[O-] 1.33
CC(=O)OC[C@H]1O[C@@H](OCCN(C)C(=O)Cn2ccnc2[N+](=O)[O-])[C@H](OC(C)=O)[C@@H](OC(C)=O)[C@H]1OC(C)=O 1.63
CN(CCO[C@@H]1O[C@H](CO)[C@H](O)[C@H](O)[C@H]1O)C(=O)Cn1ccnc1[N+](=O)[O-] 1.4

Answer with reported Ratio of CN(CCO)C(=O)Cn1ccnc1[N+](=O)[O-] 1.75
